Cited source: ChEMBL document CHEMBL1201862

Give GI50 for every item shown.
system: UACC-257; assay: NCI tumour cell line growth inhibition, 48 h
Active and inactive are the calls of the source. No stated cut-off is given here; in the data, active = GI50 up to about 1.1 µM and inactive = higher.

C=CCc1cc(-c2cc(CC=C)c(O)c(CN(CCCl)CCCl)c2)cc(CN(CCCl)CCCl)c1O :: 16 µM (inactive)

Look up GI50 for the entries below, preserving their order.
1. CCCNCC(O)CNc1ccc(NCC(O)CNCCC)c2c1C(=O)c1ccccc1C2=O (stereo not given)
2. CC1CNC(c2ccc(CN3CCC(CCCC4CCN(Cc5ccc(C6=NC(C)CN6)cc5)CC4)CC3)cc2)=N1 (stereo not given)

["7.85 µM (inactive)", "18.8 µM (inactive)"]

Look up GI50 for the entries below, preserving their order.
1. c1ccc(-c2cn3nc(N4CCOCC4)sc3n2)cc1
2. C[C@]12CCC(=O)C=C1CC[C@@H]1[C@@H]2CC[C@]2(C)C(=O)/C(=C/c3ccc([N+](=O)[O-])cc3)C[C@@H]12

["> 100 µM (inactive)", "6.59 µM (inactive)"]
